- protocol-description: modulation of TERT promoter-driven luciferase – cell-based, luciferase reporter, human, primary screen (AID 1259240)
- test-conditions: A2780 TERT promoter luciferase reporter, 16 h; at 20 µM, fold versus average of vehicle-only wells
The source made the active and inactive calls. Cut-off read from the data, not from the text of the source: active = fold change mostly below about -2 (no sharp cut-off); inactive = mostly above about -1.8.
readout-label: fold change

CCOC(=O)N1CCN(c2nc3ccccc3n3cnnc23)CC1 :: 1.59 (inactive)
COc1ccc2cc3c(N)nn(C(=O)CCS(=O)(=O)c4ccccc4)c3nc2c1 :: -1.33 (inactive)
CCCCCNC(=O)c1ccc(NC2=NC3CS(=O)(=O)CC3S2)cc1 (stereo unspecified) :: 1.22 (inactive)
CCOC(=O)c1nnn(-c2nonc2N)c1CNc1ccc(F)cc1 :: 1.3 (inactive)
Cc1cc(C)n(-c2nc3ccccc3n3nnnc23)n1 :: 1.46 (inactive)

Batch of 3 molecules: report fold change for each.
1. CC1CCN(C(=O)Cn2cc(/C=C3/C(=O)Nc4ccccc43)c3ccccc32)CC1
2. Cc1ccc(OCc2nc(-c3ccc(-n4cccc4)cc3)no2)cc1C
3. CCN1CCN(S(=O)(=O)c2ccc3[nH]c(=O)oc3c2)CC1

Solution:
1: 1.13 (inactive); 2: -2.34 (active); 3: 1.02 (inactive)

Please look at the items below and tell me fold change for each one, in order.
1. CCOc1cc(C2CC(=O)Nc3cc4c(cc32)OCCO4)ccc1O (stereo unspecified)
2. CCc1ccc(CNc2ccc3c(c2)ncn3C(C)C)cc1

Solution:
1. -1 (inactive)
2. -2.78 (active)

Would you be so kind as to report fold change for each listed record?
1. CC1=C(C(=O)Nc2ccccc2)C(c2ccccn2)n2nc(CCCO)nc2N1 (stereo unspecified)
2. CCc1c2c(nc3sc(C(=O)NCc4ccc5c(c4)OCO5)c(N)c13)CC(C)(C)CC2=O

Solution:
["inactive", "-1.01 (inactive)"]

Please supply fold change for each of the following items, keeping them in order.
1. Cc1cc(=O)[nH]c(SCC(=O)c2c[nH]c3ccccc23)n1
2. C=CCOc1ccc(/C(O)=C2/C(=O)C(=O)N(CC3CCCO3)C23C(=O)N(C)c2ccccc23)cc1 (stereo unspecified)
3. CCOC(=O)Cn1c(=O)oc2cc(S(=O)(=O)N3CCCC3)ccc21
4. CC(C)CCNC(=O)Cn1c(=O)oc2cc(S(=O)(=O)N3CCc4ccccc43)ccc21

Solution:
["inactive", "-1.41 (inactive)", "-1.16 (inactive)", "1.17 (inactive)"]

----------
- protocol-description: modulation of TERT promoter-driven luciferase – cell-based, luciferase reporter, human, primary screen (AID 1259240)
- test-conditions: A2780 TERT promoter luciferase reporter, 16 h; at 20 µM, fold versus average of vehicle-only wells
The source made the active and inactive calls. No stated cut-off is given here; in the data, active means fold change mostly below about -2 (no sharp cut-off); inactive means mostly above about -1.8.
readout-label: fold change

Guide cases for fold change, answers given:
Cc1ccccc1-n1cnc2c(sc3nc(N4CCOCC4)c4c(c32)CC(C)(C)OC4)c1=O :: -1.84 (inactive)
CC(=O)Oc1ccccc1-c1nc2s/c(=C\c3cccc(Br)c3)c(=O)n2n1 :: 1.36 (inactive)
O=C(CSc1nc(-c2ccco2)cc(C(F)(F)F)n1)N1CCOCC1 :: -2.11 (active)
CCN1CCN(C(=O)CSc2nc(-c3ccco3)cc(C(F)(F)F)n2)CC1 :: -1.46 (inactive)
O=c1[nH]c(-c2ccc3nsnc3c2)nc2ccccc12 :: inactive

Give measured fold change for every item shown.
1. CC(C)C(NS(=O)(=O)c1cccc2nsnc12)C(=O)NC1CCCCC1C (configuration not stated)
2. CC1=C(C(N)=O)C(c2ccc(O)cc2)n2nc(CCCO)nc2N1 (configuration not stated)
3. CCCN(CCC)C(=O)C1CCCN(S(=O)(=O)c2ccc3c(c2)oc(=O)n3C)C1 (configuration not stated)
4. CC(=O)Oc1ccc(/C=c2\sc3nc(-c4ccco4)nn3c2=O)cc1
5. NC(=O)C1CCN(C(=O)CCCc2nnc3n4nc(-c5ccccc5)nc4c4ccccc4n23)CC1
6. COc1ccc2cc3c(N)nn(C(=O)Cn4nc([N+](=O)[O-])c(Br)c4C)c3nc2c1
7. CC(C)C(NS(=O)(=O)c1ccc2c(c1)oc(=O)n2C)C(=O)N1CCN(c2ccccc2F)CC1 (configuration not stated)
8. O=C(NC1CCCCC1)C(=O)c1c(-c2ccccc2)cc2ccccn12

Solution:
["-1.42 (inactive)", "inactive", "1.49 (inactive)", "-1.31 (inactive)", "-1 (inactive)", "-1.45 (inactive)", "1.1 (inactive)", "1.24 (inactive)"]

Go through the items and report each one's fold change.
1. CC1(C)CC(=O)c2sc(NC(=O)C(C)(C)C)nc2C1
2. Cc1ccc(-c2cc(C(F)F)n3ncc(C(=O)N4CC(C)OC(C)C4)c3n2)cc1 (configuration not stated)
3. O=C1CC(c2ccc(F)c(F)c2)c2cc3c(cc2N1)OCO3 (configuration not stated)

Solution:
1.32 (inactive)
-2.07 (active)
1.27 (inactive)

For the 6 compounds below, give their fold change values.
1. COC(=O)CSc1nnc2c3c4c(sc3nc(C)n12)CCCC4
2. Cc1ccc(-c2noc(-c3ccccc3Cl)n2)cc1
3. CCOC(=O)c1nn(-c2ccc(F)cc2)c(=O)c2c(NC(=O)CCCl)scc12
4. O=C(C1CCN(S(=O)(=O)c2cccc3cccnc23)CC1)N1CCn2c1nc1ccccc12
5. Fc1ccccc1Nc1nc2ccccc2n2nnnc12
6. Cc1ccc(NC(=O)Nc2ccc3c(c2)N(C)C(=O)CS3)c(C)c1

Solution:
1. -1.45 (inactive)
2. -93.3 (active)
3. -3.04 (active)
4. 1.05 (inactive)
5. 1.5 (inactive)
6. -1.06 (inactive)

----------
- protocol-description: modulation of TERT promoter-driven luciferase – cell-based, luciferase reporter, human, primary screen (AID 1259240)
- test-conditions: A2780 TERT promoter luciferase reporter, 16 h; at 20 µM, fold versus average of vehicle-only wells
fold change below -1 gives Not met; fold change at or above it gives Met.

Cc1cc(C(=O)Nc2ccc(F)cc2F)on1 :: Met
O=C(CC1(O)C(=O)N(CCc2ccccc2)c2ccc(Cl)cc21)c1ccc(F)cc1 (stereo not given) :: Not met

Exercise: Hi, just wondering whether `Cc1noc(C(=O)Nc2cccnc2Cl)c1Cl` shows fold change of -1 or higher.
Solution: Met

Exercise: Check the entry `COc1ccc(NC(=O)CSc2nc(-c3ccco3)cc(C(F)(F)F)n2)c(OC)c1` : does fold change equal or exceed -1?
Solution: Not met

Exercise: Say whether `CC(=O)c1cc2c(cc1NC(=O)c1cc(C)nn1-c1ccccc1)OCO2` shows fold change of -1 or more.
Solution: Not met

Exercise: Check if fold change >= -1 (inclusive). Item: `Nc1cc(-c2ccccc2)nn1S(=O)(=O)c1cccc([N+](=O)[O-])c1`
Solution: Met

Exercise: Hi, just wondering whether `COc1ccc2cc3c(N)nn(C(=O)c4cncc(Br)c4)c3nc2c1` shows fold change of -1 or higher.
Solution: Not met

Exercise: Would you say `Cc1ccn(CN2CCN(Cn3ccc(C)n3)C2=S)n1` shows fold change at minimum -1?
Solution: Met

Exercise: Kindly determine if fold change recorded for `Cn1c(=O)c2c(SCC(=O)N3CCCc4ccccc43)nc(-c3ccco3)nc2n(C)c1=O` is above or exactly -1.
Solution: Met

----------
- protocol-description: modulation of TERT promoter-driven luciferase – cell-based, luciferase reporter, human, primary screen (AID 1259240)
- test-conditions: A2780 TERT promoter luciferase reporter, 16 h; at 20 µM, fold versus average of vehicle-only wells
The source made the active and inactive calls. Rule as the data show it: active = fold change mostly below about -2 (no sharp cut-off); inactive = mostly above about -1.8.
# output must be one of T for active, F for inactive

Reference set (6 entries):
O=C(Nc1ccc2snnc2c1)Nc1ccccc1Cl :: F
COc1ccccc1CNc1nc2ccccc2n2nnnc12 :: T
O=c1/c(=C/c2cn(-c3ccccc3)nc2-c2ccccc2)sc2nc(-c3ccco3)nn12 :: F
COc1ccc(S(=O)(=O)n2nc(-c3ccc(OC)cc3OC)cc2N)cc1 :: F
O=C(O)CN1C(=O)/C(=C\c2cn(Cc3ccc(F)cc3)c3ccccc23)SC1=S :: F
COC(=O)c1ccc(-c2nn(C)c(=O)c3ccccc23)cc1 :: F

Exercise: State the result this test recorded for `O=c1c2ccccc2[nH]c(=S)n1CCCN1CCc2ccccc2C1` .
Solution: T

----------
- protocol-description: modulation of TERT promoter-driven luciferase – cell-based, luciferase reporter, human, primary screen (AID 1259240)
- test-conditions: A2780 TERT promoter luciferase reporter, 16 h; at 20 µM, fold versus average of vehicle-only wells
Activity calls are given as the source filed them. Cut-off read from the data, not from the text of the source: active = fold change mostly below about -2 (no sharp cut-off); inactive = mostly above about -1.8.
readout-label: fold change

CCCN1C(=O)C2(/C(=C(/O)c3ccc(C)cc3)C(=O)C(=O)N2CCOC)c2ccccc21 (stereo not given) :: 1.26 (inactive)
COc1ccc2c(c1)NC(=O)C2(O)C(F)(F)F (stereo not given) :: 2.17 (active)
CCOC(=O)Cn1c(=O)oc2cc(S(=O)(=O)NC3CCCC(C)C3C)ccc21 (stereo not given) :: 1.21 (inactive)
O=C(ON=C1CCCC1)c1sc2ccccc2c1Cl :: -1.7 (inactive)
FC(F)(F)c1cccc2c1[nH]c1nc3ccccc3nc12 :: -1.1 (inactive)

# batch size: 6; output fold change per entry
1. CCOC(=O)CNc1c(N(C)C2CCCCC2)c(=O)c1=O
2. Cc1ccc2ccc(C(Nc3ccccn3)c3ccncc3)c(O)c2n1 (stereo not given)
3. CC(C)n1cnc2cc(NCc3ccncc3)ccc21
4. CCc1ccc2c(c1)c1n[nH]c(=S)nc1n2CC
5. Cc1nc(SCC(=O)c2ccccc2)c2c(=O)n(C)c(=O)n(C)c2n1
6. COc1cc(NC(=O)C2CCCN(S(=O)(=O)c3ccc4c(c3)oc(=O)n4C)C2)cc(OC)c1 (stereo not given)

Solution:
1. -1.1 (inactive)
2. -1.62 (inactive)
3. -2.71 (active)
4. 1.17 (inactive)
5. 1.14 (inactive)
6. 1.09 (inactive)

Data origin, for the record: PubChem BioAssay AID1259240
